SUBJECT OF TEST: dopaminergic D3 receptor (Homo sapiens, UniProt P35462)
Sequence (P35462 whole entry): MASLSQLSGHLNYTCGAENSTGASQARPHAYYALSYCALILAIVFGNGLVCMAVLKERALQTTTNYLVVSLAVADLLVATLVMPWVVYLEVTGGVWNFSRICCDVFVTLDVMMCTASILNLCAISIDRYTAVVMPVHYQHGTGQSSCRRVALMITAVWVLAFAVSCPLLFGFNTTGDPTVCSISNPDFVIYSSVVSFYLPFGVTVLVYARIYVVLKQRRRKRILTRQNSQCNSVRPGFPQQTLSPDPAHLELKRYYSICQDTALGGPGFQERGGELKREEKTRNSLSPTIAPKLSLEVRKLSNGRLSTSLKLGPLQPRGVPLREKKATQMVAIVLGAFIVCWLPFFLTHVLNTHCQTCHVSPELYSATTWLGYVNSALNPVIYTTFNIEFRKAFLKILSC
PROTOCOL: Binding assay D3 (h), [3H]methyl-spiperone, CHO cells
Set-up: expressed in transfected cells; host or cells: CHO cells
ASSAY CONDITIONS: read-out: D3 [%]
Assign inhibition at 1 µM to each entry below.
Numbers only, in %.

Recorded results for 7 molecules are shown here.
INPUT SMILES | NUMERIC VALUE
O=S(=O)(NCCCN1CCC(c2noc3cc(F)ccc23)CC1)c1cccs1 | 100
O=S(=O)(NCCCCN1CCN(c2nsc3ccccc23)CC1)c1cccc(C(F)(F)F)c1 | 87
O=S(=O)(NCCCCN1CCC(c2noc3cc(F)ccc23)CC1)c1ccc2ccccc2c1 | 98
O=S(=O)(NCCCN1CC=C(c2c[nH]c3ccc(F)cc23)CC1)c1cccc(F)c1 | 96
O=S(=O)(NCCCN1CCN(c2nsc3ccccc23)CC1)c1cccc(C(F)(F)F)c1 | 97
O=S(=O)(NCCCCN1CCC(c2noc3cc(F)ccc23)CC1)c1ccc(-c2ccccc2)cc1 | 93
Cc1c(S(=O)(=O)NCCCCN2CCC(c3noc4cc(F)ccc34)CC2)sc2ccc(F)cc12 | 92

Turning now to a further molecule:
Exercise: Entry under review: `O=S(=O)(NCCCCN1CCN(c2noc3ccccc23)CC1)c1ccc(Cl)cc1` . Reported inhibition at 1 µM?
Key: 85

====

Assign inhibition at 1 µM to each entry below.
SUBJECT OF TEST: serotoninergic 5-HT1A receptor (Homo sapiens)
Sequence (P08908 whole entry): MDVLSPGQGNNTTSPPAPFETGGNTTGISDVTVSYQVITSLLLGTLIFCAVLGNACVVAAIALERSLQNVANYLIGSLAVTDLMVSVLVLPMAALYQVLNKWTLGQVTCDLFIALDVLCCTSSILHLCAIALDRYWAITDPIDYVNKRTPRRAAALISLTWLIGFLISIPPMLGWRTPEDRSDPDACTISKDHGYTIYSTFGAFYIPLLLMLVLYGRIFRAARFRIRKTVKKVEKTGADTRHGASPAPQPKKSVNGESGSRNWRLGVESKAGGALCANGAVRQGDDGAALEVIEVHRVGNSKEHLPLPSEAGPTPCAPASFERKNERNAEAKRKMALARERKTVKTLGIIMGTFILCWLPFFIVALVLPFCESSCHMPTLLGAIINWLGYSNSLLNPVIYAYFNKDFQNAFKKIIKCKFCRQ
PROTOCOL: Binding assay 5-HT1A (h), [3H]8-OH-DPAT, HEK-293 cells
Set-up: expressed in transfected cells; host or cells: HEK-293 cells
ASSAY CONDITIONS: read-out: 5-HT1A
Answers are plain numbers, in %.

Recorded results for 5 compounds are shown here.
COMPOUND | inhibition at 1 µM, %
Cn1ccc2c(S(=O)(=O)NCCCN3CCC(c4noc5cc(F)ccc45)CC3)cccc21 [Compound 343] | 32
O=S(=O)(NCCCN1CCN(c2cccc3c2OCCO3)CC1)c1csc2ccccc12 [Compound 416] | 101
O=S(=O)(NCCCN1CCC(c2noc3cc(F)ccc23)CC1)c1ccc(Cl)cc1 [Compound 328] | 58
Cc1cccc(S(=O)(=O)NCCCCN2CCN(c3nsc4ccccc34)CC2)c1 [Compound 3] | 98
Cc1[nH]c2ccc(Cl)cc2c1C1=CCN(CCCCNS(=O)(=O)c2cccc(O)c2)CC1 [Compound 369] | 62

Hello, I would appreciate it if you could give inhibition at 1 µM for each entry below.
1. O=S(=O)(NCCCN1CCC(c2noc3cc(F)ccc23)CC1)c1cccc(C(F)(F)F)c1 [Compound 335]
2. O=S(=O)(NCCCCN1CCC(c2noc3cc(F)ccc23)CC1)c1ccc(F)c(Cl)c1 [Compound 299]
3. O=S(=O)(NCCCCN1CCN(c2nsc3ccccc23)CC1)c1ccc(Cl)cc1 [Compound 227]
4. O=S(=O)(NCCCN1CCN(c2nsc3ccccc23)CC1)c1cccc(Cl)c1 [Compound 70]

Key:
[54, 45, 89, 99]

====

Assign inhibition at 1 µM to each entry below.
SUBJECT OF TEST: serotoninergic 5-HT7 receptor (Homo sapiens, UniProt P34969)
Sequence (P34969 whole entry): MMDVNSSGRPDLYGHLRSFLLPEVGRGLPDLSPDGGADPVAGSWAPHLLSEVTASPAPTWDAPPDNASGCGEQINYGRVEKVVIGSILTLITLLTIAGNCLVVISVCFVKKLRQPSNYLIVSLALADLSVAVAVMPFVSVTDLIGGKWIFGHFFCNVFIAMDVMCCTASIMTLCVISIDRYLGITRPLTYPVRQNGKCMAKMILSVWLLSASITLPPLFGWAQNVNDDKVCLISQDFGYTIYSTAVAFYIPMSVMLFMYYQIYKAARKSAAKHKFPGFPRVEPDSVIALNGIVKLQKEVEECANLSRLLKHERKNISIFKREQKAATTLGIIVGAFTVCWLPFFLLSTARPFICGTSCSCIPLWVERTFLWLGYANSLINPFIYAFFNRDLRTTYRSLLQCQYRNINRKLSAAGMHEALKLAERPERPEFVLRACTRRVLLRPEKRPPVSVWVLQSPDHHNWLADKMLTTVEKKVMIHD
PROTOCOL: Cellular functional assay, serotoninergic 5-HT7 receptor (agonism/antagonism)
Format: cell-based
ASSAY CONDITIONS: read-out: 5-HT7-antag. [%]
Give bare numbers, in %.

INPUT SMILES | SUBJECT OF TEST | NUMERIC VALUE
O=S(=O)(NCCCCN1CCC(c2noc3cc(F)ccc23)CC1)c1ccc(Br)cc1 | serotoninergic 5-HT7 receptor (Homo sapiens, UniProt P34969) | 98
O=S(=O)(NCCCCN1CCN(c2cccc3[nH]ccc23)CC1)c1cccc(Cl)c1 | serotoninergic 5-HT7 receptor (Homo sapiens, UniProt P34969) | 45
O=c1[nH]c2ccc(S(=O)(=O)NCCCN3CCN(c4nsc5ccccc45)CC3)cc2o1 | serotoninergic 5-HT7 receptor (Homo sapiens, UniProt P34969) | 82
Cc1cccc(S(=O)(=O)NCCCCN2CCC(c3noc4cc(F)ccc34)CC2)c1 | serotoninergic 5-HT7 receptor (Homo sapiens, UniProt P34969) | 99
O=S(=O)(NCCCCN1CCN(c2noc3ccccc23)CC1)c1ccc2cc(Cl)ccc2c1 | serotoninergic 5-HT7 receptor (Homo sapiens, UniProt P34969) | 97

Hello, I would appreciate it if you could give inhibition at 1 µM for each entry below.
1. Cc1cccc(S(=O)(=O)NCCCCN2CCN(c3noc4ccccc34)CC2)c1
2. O=S(=O)(NCCCCN1CCN(c2nsc3ccccc23)CC1)c1ccc2ccccc2c1
3. O=S(=O)(NCCCCN1CCC(c2noc3cc(F)ccc23)CC1)c1cccc2ccccc12

Key:
96
80
95

====

SUBJECT OF TEST: adrenergic α2C receptor (Homo sapiens, UniProt P18825)
Sequence (P18825 whole entry): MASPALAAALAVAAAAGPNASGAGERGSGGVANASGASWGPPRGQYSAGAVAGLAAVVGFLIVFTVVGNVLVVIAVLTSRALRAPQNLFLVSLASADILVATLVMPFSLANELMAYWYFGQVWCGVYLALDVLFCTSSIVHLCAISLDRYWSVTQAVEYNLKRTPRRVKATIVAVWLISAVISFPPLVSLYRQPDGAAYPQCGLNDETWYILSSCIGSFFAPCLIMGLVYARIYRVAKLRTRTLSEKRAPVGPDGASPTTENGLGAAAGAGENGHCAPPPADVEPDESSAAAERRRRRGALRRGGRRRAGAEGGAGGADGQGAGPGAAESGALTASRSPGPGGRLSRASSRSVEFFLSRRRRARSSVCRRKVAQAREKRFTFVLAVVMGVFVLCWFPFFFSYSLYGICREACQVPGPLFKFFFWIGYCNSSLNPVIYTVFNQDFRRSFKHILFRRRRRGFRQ
PROTOCOL: Binding assay α2C (h), [3H]RX 821002, CHO cells
Parameters: expressed in transfected cells; host or cells: CHO cells
ASSAY CONDITIONS: read-out: α2C [%]
ENDPOINT: inhibition at 1 µM (%)
One number for each entry, in %.

Recorded results for 2 molecules are shown here.
MOLECULE | inhibition at 1 µM, %
O=S(=O)(NCCCN1CCC(c2noc3cc(F)ccc23)CC1)c1ccc(F)c(Cl)c1 [Compound 331] | 104
Cc1c(S(=O)(=O)NCCCN2CCN(c3nsc4ccccc34)CC2)sc2ccc(F)cc12 [Compound 66] | 103

Hello, I would appreciate it if you could give inhibition at 1 µM for each entry below.
1. O=S(=O)(NCCCN1CCC(c2noc3cc(F)ccc23)CC1)c1ccc2ccccc2c1 [Compound 21]
2. O=S(=O)(NCCCCN1CCN(c2noc3ccccc23)CC1)c1ccc(-c2ccccc2)cc1 [Compound 283]
3. O=S(=O)(NCCCCN1CCN(c2nsc3ccccc23)CC1)c1cc2ccc(Cl)cc2s1 [Compound 241]

Key:
1: 98; 2: 109; 3: 98

Hello, I would appreciate it if you could give inhibition at 1 µM for each entry below.
1. O=S(=O)(NCCCN1CCC(c2noc3cc(F)ccc23)CC1)c1ccc2cn[nH]c2c1 [Compound 352]
2. O=S(=O)(NCCCN1CCN(c2nsc3ccccc23)CC1)c1cccc(Cl)c1 [Compound 70]
3. Cc1cccc(S(=O)(=O)NCCCN2CCN(c3nsc4ccccc34)CC2)c1 [Compound 7]
4. O=S(=O)(NCCCN1CCN(c2nsc3ccccc23)CC1)c1ccc(F)c(F)c1 [Compound 249]
5. O=S(=O)(NCCCCN1CCN(c2cccc3[nH]ccc23)CC1)c1cc2ccccc2s1 [Compound 33]
6. O=S(=O)(NCCCCN1CCN(c2noc3ccccc23)CC1)c1cccc2ccccc12 [Compound 13]

Key:
1: 100; 2: 100; 3: 96; 4: 98; 5: 100; 6: 99

====

Assign α1 [%] to each entry below.
Tested on: adrenergic α1 receptor
PROTOCOL: Binding assay α1 (non-selective), [3H]prazosin, rat cerebral cortex
ASSAY CONDITIONS: percent inhibition of control specific binding; compounds tested at 1×10^−6 M
Answers are plain numbers, in %.

INPUT SMILES | NUMERIC VALUE
O=S(=O)(NCCCN1CCN(c2nsc3ccccc23)CC1)c1ccc2cn[nH]c2c1 | 90
O=S(=O)(NCCCCN1CCN(c2noc3ccccc23)CC1)c1cccc(Cl)c1 | 98
O=S(=O)(NCCCCN1CCN(c2cccc3c2OCCO3)CC1)c1cc2ccc(Cl)cc2s1 | 90
Cc1c(S(=O)(=O)NCCCN2CCC(c3noc4cc(F)ccc34)CC2)sc2ccc(F)cc12 | 99
O=C1Cc2cc(S(=O)(=O)NCCCCN3CCC(c4noc5cc(F)ccc45)CC3)ccc2N1 | 103

Hello, I would appreciate it if you could give α1 [%] for each entry below.
1. O=S(=O)(NCCCCN1CCN(c2cccc3c2OCCO3)CC1)c1csc2ccccc12
2. O=c1[nH]c2ccc(S(=O)(=O)NCCCN3CCC(c4noc5cc(F)ccc45)CC3)cc2o1
3. O=C1COc2c(cccc2N2CCN(CCCCNS(=O)(=O)c3ccc4ccccc4c3)CC2)N1

Key:
94
103
86

====

Assign inhibition at 1 µM to each entry below.
SUBJECT OF TEST: serotoninergic 5-HT2A receptor (Homo sapiens, UniProt P28223)
Sequence (P28223 whole entry): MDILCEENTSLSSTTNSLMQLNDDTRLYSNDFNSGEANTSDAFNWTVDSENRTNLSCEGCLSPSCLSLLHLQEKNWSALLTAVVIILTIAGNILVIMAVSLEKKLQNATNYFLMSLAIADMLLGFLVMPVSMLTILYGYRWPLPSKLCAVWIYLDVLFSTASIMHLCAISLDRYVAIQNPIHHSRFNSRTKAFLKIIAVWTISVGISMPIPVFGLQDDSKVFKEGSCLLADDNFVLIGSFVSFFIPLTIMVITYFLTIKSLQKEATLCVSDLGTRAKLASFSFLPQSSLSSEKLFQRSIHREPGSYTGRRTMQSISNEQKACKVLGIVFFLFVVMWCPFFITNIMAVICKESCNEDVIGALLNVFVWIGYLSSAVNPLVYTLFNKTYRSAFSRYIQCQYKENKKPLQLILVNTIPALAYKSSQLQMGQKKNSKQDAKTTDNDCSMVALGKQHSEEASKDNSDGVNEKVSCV
PROTOCOL: Binding assay 5-HT2A (h), [3H]ketanserin, HEK-293 cells
Parameters: expressed in transfected cells; host or cells: HEK-293 cells
ASSAY CONDITIONS: read-out: 5-HT2A
One number for each entry, in %.

Recorded results for 5 compounds are shown here.
COMPOUND | READOUT UNIT | inhibition at 1 µM
O=S(=O)(NCCCCN1CCN(c2noc3ccccc23)CC1)c1ccc(Cl)cc1 [Compound 273] | % | 95
Cc1[nH]c2ccc(Cl)cc2c1C1=CCN(CCCCNS(=O)(=O)c2ccc(F)cc2)CC1 [Compound 368] | % | 64
O=S(=O)(NCCCN1CCN(c2nsc3ccccc23)CC1)c1cccc2scnc12 [Compound 267] | % | 101
O=c1[nH]c2ccc(S(=O)(=O)NCCCCN3CCN(c4cccc5c4OCCO5)CC3)cc2o1 [Compound 403] | % | 64
O=S(=O)(NCCCCN1CCN(c2nsc3ccccc23)CC1)c1cccc(C(F)(F)F)c1 [Compound 235] | % | 80

Hello, I would appreciate it if you could give inhibition at 1 µM for each entry below.
1. Cc1c(S(=O)(=O)NCCCN2CCC(c3noc4cc(F)ccc34)CC2)sc2ccc(F)cc12 [Compound 102]
2. O=c1[nH]c2cccc(N3CCN(CCCCNS(=O)(=O)c4ccc5ccccc5c4)CC3)c2[nH]1 [Compound 419]
3. O=S(=O)(NCCCCN1CCC(c2noc3cc(F)ccc23)CC1)c1ccc(F)c(F)c1 [Compound 295]

Key:
101
52
99

Hello, I would appreciate it if you could give inhibition at 1 µM for each entry below.
1. O=S(=O)(NCCCCN1CCN(c2nsc3ccccc23)CC1)c1ccc(Br)cc1 [Compound 229]
2. O=S(=O)(NCCCN1CCN(c2nsc3ccccc23)CC1)c1cccc(Cl)c1 [Compound 70]
3. Cc1[nH]c2ccc(Cl)cc2c1C1=CCN(CCCNS(=O)(=O)c2ccc(F)cc2)CC1 [Compound 443]
4. O=S(=O)(NCCCN1CCC(c2noc3cc(F)ccc23)CC1)c1csc2ccccc12 [Compound 346]
5. N#Cc1ccc(S(=O)(=O)NCCCCN2CCC(c3noc4cc(F)ccc34)CC2)cc1 [Compound 305]
6. O=S(=O)(NCCCCN1CCN(c2cccc3c2OCCO3)CC1)c1cccc(Cl)c1 [Compound 390]
7. Cc1c(S(=O)(=O)NCCCCN2CCN(c3cccc4[nH]c(=O)[nH]c34)CC2)sc2ccc(Cl)cc12 [Compound 165]

Key:
[80, 101, 67, 97, 96, 59, 37]

Hello, I would appreciate it if you could give inhibition at 1 µM for each entry below.
1. O=S(=O)(NCCCCN1CCC(c2noc3cc(F)ccc23)CC1)c1cc2ccccc2s1 [Compound 312]
2. O=S(=O)(NCCCCN1CCC(c2noc3cc(F)ccc23)CC1)c1ccc(F)c(Cl)c1 [Compound 299]
3. O=S(=O)(NCCCCN1CCN(c2cccc3c2OCCO3)CC1)c1cccc(O)c1 [Compound 393]
4. COc1cccc(S(=O)(=O)NCCCCN2CCN(c3cccc4c3OCCO4)CC2)c1 [Compound 394]
5. O=c1[nH]c2cccc(N3CCN(CCCNS(=O)(=O)c4ccc(Cl)cc4)CC3)c2[nH]1 [Compound 425]

Key:
1: 99; 2: 89; 3: 47; 4: 71; 5: 25

Hello, I would appreciate it if you could give inhibition at 1 µM for each entry below.
1. Cc1cccc(S(=O)(=O)NCCCN2CCN(c3nsc4ccccc34)CC2)c1 [Compound 7]
2. O=S(=O)(NCCCN1CCC(c2noc3cc(F)ccc23)CC1)c1ccc2cc(Cl)ccc2c1 [Compound 98]
3. N#Cc1cccc(S(=O)(=O)NCCCCN2CCC(c3noc4cc(F)ccc34)CC2)c1 [Compound 306]
4. O=S(=O)(NCCCCN1CCN(c2nsc3ccccc23)CC1)c1ccc(Cl)s1 [Compound 195]
5. O=S(=O)(NCCCCN1CCN(c2cccc3[nH]ccc23)CC1)c1c[nH]c2ncccc12 [Compound 31]

Key:
[100, 102, 97, 91, 36]
